# Test system: LTC4 release from isolated human monocytes
# experiment.notes: Inhibition of LTC4 release from isolated human monocytes (A23187-stimulated)
# Format: cell-based
# conditions.used: read-out: Inhibitory Activity IC50, Human monocyte LTC4
pIC50: −log10 of the molar value.
measurement.name: pIC50

1) CCCCCC(=O)ON(C[C@H]1CN(c2ccc(N3CCOCC3)c(F)c2)C(=O)O1)C(=O)CCCCC :: 5.15

###

Entries and their measured melting point follow.
measurement.name: melting point

1. CCCCCC(=O)N(O)C[C@H]1CN(c2ccc(N3CCOCC3)c(F)c2)C(=O)O1 [PH-247] :: 118.5 to 120.5 °C
2. O=C(C1CCCC1)N(O)C[C@H]1CN(c2ccc(N3CCOCC3)c(F)c2)C(=O)O1 [PH-244] :: 164.5 to 166.5 °C
3. CCCCC(=O)N(O)C[C@H]1CN(c2ccc(N3CCOCC3)c(F)c2)C(=O)O1 [PH-241] :: 121 to 122.5 °C
